# ASSAYED SYSTEM: Liver GK (Homo sapiens, UniProt P35557)
# Construct: (His)6; made in house; host or cells: Escherichia coli
# ASSAY: Glucokinase enzyme assay, liver GK
# Assay type: biochemical
# CONDITION NOTES: concentration that produces 100% activation above the vehicle control

MOLECULE	ASSAYED SYSTEM	UNITS SYMBOL	QUALIFIER	EC100%
CC1=C(C)C(SCC(=O)Nc2ccccn2)N(Cc2ccc(F)cc2)C1=O (centres unmarked) [Compound 12]	Liver GK (Homo sapiens, UniProt P35557)	µM	=	8.72
CC1=C(C)C(SCC(=O)Nc2ccccn2)N(Cc2ccc(OC(F)F)cc2)C1=O (centres unmarked) [Compound 16]	Liver GK (Homo sapiens, UniProt P35557)	µM	=	17.01
CC1=C(C)C(SCC(=O)Nc2ccccn2)N(Cc2ccc3c(c2)CCO3)C1=O (centres unmarked) [Compound 20]	Liver GK (Homo sapiens, UniProt P35557)	µM	=	6.61
COc1ccc(CN2C(=O)C(C)=C(C)C2SCC(=O)Nc2cnccn2)cc1 (centres unmarked) [Compound 6]	Liver GK (Homo sapiens, UniProt P35557)	µM	=	20.1
COc1ccc(CN2C(=O)C=C(C)C2SCC(=O)Nc2ccccn2)cc1 (centres unmarked) [Compound 19]	Liver GK (Homo sapiens, UniProt P35557)	µM	=	30.5
COc1ccc(CN2C(=O)C(C)=C(C)C2SCC(=O)Nc2ccccn2)cc1OC (centres unmarked) [Compound 11]	Liver GK (Homo sapiens, UniProt P35557)	µM	=	5.83
COc1ccc(CN2C(=O)C(C)=C(C)C2SCC(=O)Nc2cc(C)ccn2)cc1 (centres unmarked) [Compound 21]	Liver GK (Homo sapiens, UniProt P35557)	µM	=	12.68
COc1ccc(CN2C(=O)C(C)=C(C)C2SCC(=O)Nc2ccc(C(N)=O)cn2)cc1 (centres unmarked) [Compound 18]	Liver GK (Homo sapiens, UniProt P35557)	µM	=	3.61
COc1ccc(CN2C(=O)C(C)=C(C)C2SCC(=O)Nc2ccc(Cl)cn2)cc1 (centres unmarked) [Compound 8]	Liver GK (Homo sapiens, UniProt P35557)	µM	=	9.77
COC(=O)c1ccc(NC(=O)CSC2C(C)=C(C)C(=O)N2Cc2ccc(OC)cc2)nc1 (centres unmarked) [Compound 1]	Liver GK (Homo sapiens, UniProt P35557)	µM	=	1.46
COc1ccc(CN2C(=O)C(C)=C(C)C2SCC(=O)Nc2cccc(C)n2)cc1 (centres unmarked) [Compound 23]	Liver GK (Homo sapiens, UniProt P35557)	µM	=	13.78
CCOC(=O)Cc1csc(NC(=O)CSC2C(C)=C(C)C(=O)N2Cc2ccc(OC)cc2)n1 (centres unmarked) [Compound 7]	Liver GK (Homo sapiens, UniProt P35557)	µM	=	38.9
COc1ccc(CN2C(=O)C(C)=C(C)C2SCC(=O)Nc2ccccn2)cc1 (centres unmarked) [Compound 5]	Liver GK (Homo sapiens, UniProt P35557)	µM	=	8.3
COc1ccc(CN2C(=O)C(C)=CC2SCC(=O)Nc2ccccn2)cc1 (centres unmarked) [Compound 15]	Liver GK (Homo sapiens, UniProt P35557)	µM	=	37.08
COc1ccc(CN2C(=O)C(C)=C(C)C2OCC(=O)Nc2ccccn2)cc1 (centres unmarked) [Compound 30]	Liver GK (Homo sapiens, UniProt P35557)	µM	>	50
COc1ccc(CN2C(=O)C(C)=C(C)C2SCC(=O)Nc2ccccn2)c(OC)c1 (centres unmarked) [Compound 10]	Liver GK (Homo sapiens, UniProt P35557)	µM	=	39.92
CCc1ccc(CN2C(=O)C(C)=C(C)C2SCC(=O)Nc2ccccn2)cc1 (centres unmarked) [Compound 26]	Liver GK (Homo sapiens, UniProt P35557)	µM	=	35.9
COc1ccc(CN2C(=O)C(C)=C(C)C2SCC(=O)Nc2ccc(C)cn2)cc1 (centres unmarked) [Compound 9]	Liver GK (Homo sapiens, UniProt P35557)	µM	=	4.9
CC1=C(C)C(SCC(=O)Nc2ccccn2)N(Cc2ccc(C(C)C)cc2)C1=O (centres unmarked) [Compound 25]	Liver GK (Homo sapiens, UniProt P35557)	µM	=	28.5
COc1cc(CN2C(=O)C(C)=C(C)C2SCC(=O)Nc2ccccn2)cc(OC)c1 (centres unmarked) [Compound 29]	Liver GK (Homo sapiens, UniProt P35557)	µM	=	26.1
CC1=C(C)C(SCC(=O)Nc2ccccn2)N(Cc2cccs2)C1=O (centres unmarked) [Compound 24]	Liver GK (Homo sapiens, UniProt P35557)	µM	=	26.7
COC(=O)c1ccc(NC(=O)COC2C(C)=C(C)C(=O)N2Cc2ccc(OC)cc2)nc1 (centres unmarked) [Compound 27]	Liver GK (Homo sapiens, UniProt P35557)	µM	>	50
COc1ccc(CN2C(=O)C(C)=C(C)C2OCC(=O)Nc2ccc(C)cn2)cc1 (centres unmarked) [Compound 28]	Liver GK (Homo sapiens, UniProt P35557)	µM	>	50

----------
# ASSAYED SYSTEM: Pancreas GK (Homo sapiens)
# Construct: (His)6; made in house; host or cells: Escherichia coli
# Sequence (P35557 1-465): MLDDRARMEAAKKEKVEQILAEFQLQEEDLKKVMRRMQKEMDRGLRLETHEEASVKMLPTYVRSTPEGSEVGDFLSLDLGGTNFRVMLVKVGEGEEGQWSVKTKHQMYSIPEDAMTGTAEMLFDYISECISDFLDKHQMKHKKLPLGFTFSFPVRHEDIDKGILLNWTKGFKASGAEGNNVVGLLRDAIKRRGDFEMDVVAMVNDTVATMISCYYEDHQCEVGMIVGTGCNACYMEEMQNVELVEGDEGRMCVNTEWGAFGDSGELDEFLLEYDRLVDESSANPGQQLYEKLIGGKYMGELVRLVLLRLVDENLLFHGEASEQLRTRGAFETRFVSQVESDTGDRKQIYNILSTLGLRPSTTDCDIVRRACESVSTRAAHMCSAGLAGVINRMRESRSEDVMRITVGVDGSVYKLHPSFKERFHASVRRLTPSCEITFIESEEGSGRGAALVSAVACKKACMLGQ
# ASSAY: Glucokinase enzyme assay, pancreas GK
# Type: biochemical
# CONDITION NOTES: concentration that produces 100% activation above the vehicle control
Overview of recorded EC100% for various compounds

COMPOUND	EC100%
COc1cc(CN2C(=O)C(C)=C(C)C2SCC(=O)Nc2ccccn2)cc(OC)c1 (centres unmarked) [Compound 29]	41.4 µM
COc1ccc(CN2C(=O)C(C)=C(C)C2SCC(=O)Nc2ccc(C(N)=O)cn2)cc1 (centres unmarked) [Compound 18]	12.02 µM
COC(=O)c1ccc(NC(=O)CSC2C(C)=C(C)C(=O)N2Cc2ccc(F)cc2)nc1 (centres unmarked) [Compound 35]	5.3 µM
CC1=C(C)C(SCC(=O)Nc2ccccn2)N(Cc2ccc(N(C)C)cc2)C1=O (centres unmarked) [Compound 34]	12 µM
COc1ccc(CN2C(=O)C(C)=C(C)C2SCC(=O)Nc2cccc(C)n2)cc1 (centres unmarked) [Compound 23]	20.28 µM
COc1ccc(CN2C(=O)C(C)=C(C)C2SCC(=O)Nc2cc(C)ccn2)cc1 (centres unmarked) [Compound 21]	19.43 µM
COC(=O)c1ccc(NC(=O)CSC2C(C)=C(C)C(=O)N2Cc2ccc(OC)cc2)nc1 (centres unmarked) [Compound 1]	2.23 µM
COC(=O)c1ccc(NC(=O)CSC2C(C)=C(C)C(=O)N2Cc2cc(OC)cc(OC)c2)nc1 (centres unmarked) [Compound 40]	19 µM

----------
# ASSAYED SYSTEM: Liver GK (Homo sapiens, UniProt P35557)
# Construct: (His)6; made in house; host or cells: Escherichia coli
# ASSAY: Glucokinase enzyme assay, liver GK
# Assay type: biochemical
# CONDITION NOTES: percentage increase in GK activity above vehicle control, compound 50 μM, 12 mM glucose
# Text: An enzymatic Glucokinase (GK) assay using purified recombinant human liver/pancreas enzyme was used to evaluate the effects of potential small molecule modulators. In this assay, GK catalyzes glucose phosphorylation in the presence of ATP. The product of this reaction, glucose-6-phosphate, was then oxidized by an excess of glucose-6-phosphate dehydrogenase to produce gluconate-6-phosphate with concomitant reduction of nicotinamide adenine dinucleotide (NAD). […]
Overview of recorded activation at 50 µM for various molecules

MOLECULE	UNITS SYMBOL	activation at 50 µM
COc1ccc(CN2C(=O)C(C)=C(C)C2SCC(=O)Nc2ccccn2)cc1 (centres unmarked)	%	222
COc1ccc(CN2C(=O)C(C)=C(C)C2SCC(=O)Nc2ccc(C(N)=O)cn2)cc1 (centres unmarked)	%	217
CC1=C(C)C(SCC(=O)Nc2ccccn2)N(Cc2ccc(F)cc2)C1=O (centres unmarked)	%	198
CC1=C(C)C(SCC(=O)Nc2ccccn2)N(Cc2cccs2)C1=O (centres unmarked)	%	172
COc1ccc(CN2C(=O)C(C)=C(C)C2SCC(=O)Nc2cnccn2)cc1 (centres unmarked)	%	175

----------
# ASSAYED SYSTEM: Liver GK (Homo sapiens, UniProt P35557)
# Construct: (His)6
# Sequence (P35557 1-466 isoform P35557-2): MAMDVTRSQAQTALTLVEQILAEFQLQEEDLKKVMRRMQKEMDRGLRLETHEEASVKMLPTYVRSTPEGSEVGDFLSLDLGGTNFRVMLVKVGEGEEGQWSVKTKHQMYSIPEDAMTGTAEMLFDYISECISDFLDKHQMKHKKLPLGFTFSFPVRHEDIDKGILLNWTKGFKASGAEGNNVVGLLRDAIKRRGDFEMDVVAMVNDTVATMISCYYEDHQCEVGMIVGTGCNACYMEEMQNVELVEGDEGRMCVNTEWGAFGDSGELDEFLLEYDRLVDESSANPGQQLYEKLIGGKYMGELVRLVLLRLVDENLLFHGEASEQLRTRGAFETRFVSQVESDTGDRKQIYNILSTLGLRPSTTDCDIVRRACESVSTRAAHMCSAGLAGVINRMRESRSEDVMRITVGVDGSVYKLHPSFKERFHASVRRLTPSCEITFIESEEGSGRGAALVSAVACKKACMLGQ
# ASSAY: Glucokinase enzyme assay, liver GK
# CONDITION NOTES: concentration that produces 50% activation above the vehicle control
pEC50: −log10 of the molar value.
ENDPOINT NAME: pEC50

COMPOUND	ENDPOINT NAME	NUMERIC VALUE
CC1=C(C)C(SCC(=O)Nc2ccccn2)N(Cc2cccs2)C1=O (stereo not shown)	pEC50	5.08
COc1ccc(CN2C(=O)C(C)=C(C)C2SCC(=O)Nc2ccccn2)cc1OC (stereo not shown)	pEC50	5.62
COc1ccc(CN2C(=O)C(C)=C(C)C2SCC(=O)Nc2ccc(C)cn2)cc1 (stereo not shown)	pEC50	5.85
COc1ccc(CN2C(=O)C(C)=C(C)C2SCC(=O)Nc2nccs2)cc1 (stereo not shown)	pEC50	5.03
CCc1ccnc(NC(=O)CSC2C(C)=C(C)C(=O)N2Cc2ccc(OC)cc2)c1 (stereo not shown)	pEC50	4.76
CC1=C(C)C(SCC(=O)Nc2ccccn2)N(Cc2ccc(F)cc2)C1=O (stereo not shown)	pEC50	5.54
COc1ccc(CN2C(=O)C(C)=C(C)C2SCC(=O)Nc2cc(C)ccn2)cc1 (stereo not shown)	pEC50	5.33
COC(=O)c1ccc(NC(=O)COC2C(C)=C(C)C(=O)N2Cc2ccc(OC)cc2)nc1 (stereo not shown)	pEC50	4.85
COc1ccc(CN2C(=O)C(C)=C(C)C2SCC(=O)Nc2ccccn2)cc1 (stereo not shown)	pEC50	5.48
CCOC(=O)Cc1csc(NC(=O)CSC2C(C)=C(C)C(=O)N2Cc2ccc(OC)cc2)n1 (stereo not shown)	pEC50	4.94
COc1ccc(CN2C(=O)C(C)=C(C)C2OCC(=O)Nc2ccc(C)cn2)cc1 (stereo not shown)	pEC50	4.85
CC1=C(C)C(SCC(=O)Nc2ccccn2)N(Cc2ccc(OC(F)F)cc2)C1=O (stereo not shown)	pEC50	5.17
COc1ccc(CN2C(=O)C(C)=C(C)C2OCC(=O)Nc2ccccn2)cc1 (stereo not shown)	pEC50	4.46

From: patent US8680122B2
